The following are reported IC50 results, target or system human 11β-HSD1 (Homo sapiens).

Query IC50 on human 11β-HSD1 (Homo sapiens) for `CC1(C)NC(=O)C2(CCN(C(=O)/C=C/c3ccccc3C(F)(F)F)CC2)c2ccccc21`
< 100 nM

Lookup: IC50 / human 11β-HSD1 (Homo sapiens) / CCOC(=O)CC1CC2(CCN(C(=O)NCc3ccccc3OCC)CC2)c2c(Br)cccc21 (stereo not shown)
100 to 1000 nM

Form field - read-out: IC50; system: human 11β-HSD1 (Homo sapiens); submitted item: `CN1CCN(C(=O)c2ccc3c(c2)C2(CCN(C(=O)/C=C/c4ccccc4C(F)(F)F)CC2)C(=O)N3C)CC1`
100 to 1000 nM

###

# study target: human 11β-HSD1 (Homo sapiens, UniProt P28845)
# Construct: expressed in transfected cells; host or cells: CHO cells (microsomes)
# Sequence (P28845 whole entry): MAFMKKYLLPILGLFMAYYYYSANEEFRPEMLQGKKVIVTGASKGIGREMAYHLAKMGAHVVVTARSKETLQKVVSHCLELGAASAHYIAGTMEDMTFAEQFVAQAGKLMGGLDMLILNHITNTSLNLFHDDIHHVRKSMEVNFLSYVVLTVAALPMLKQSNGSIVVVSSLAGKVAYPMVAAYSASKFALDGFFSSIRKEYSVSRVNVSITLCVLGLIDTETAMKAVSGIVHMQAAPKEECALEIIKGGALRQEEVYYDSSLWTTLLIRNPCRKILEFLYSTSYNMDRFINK
# test protocol: Inhibition of microsomal preparation of 11β-HSD1 (SPA, Biological Test Example 1)
# Type: biochemical
# assay context: 100 nM
parameter measured: inhibition at 0.1 µM
Express the reported value numerically, then name its unit.

Solved entries (count: 3):
[[record]]
compound = "O=C(O)CC1CC2(CCN(C(=O)/C=C/c3ccccc3C(F)(F)F)CC2)c2c(Br)cccc21 (single isomer, unassigned; isomer 1) [EXAMPLE 2.1]"
assay_value = "96.6%"

[[record]]
compound = "O=C(O)CC1CC2(CCN(C(=O)Cc3ccccc3OC(F)(F)F)CC2)c2c(Cl)cccc21 (stereo not shown)"
assay_value = "61.2%"

[[record]]
compound = "CC1(C)NC(=O)C2(CCN(C(=O)/C=C/c3ccccc3C(F)(F)F)CC2)c2ccccc21"
assay_value = "90.6%"


Suppose we examine the compound O=C(O)CC1CC2(CCN(C(=O)CCc3ccccc3C(F)(F)F)CC2)c2c(Br)cccc21 (stereo not shown) [EXAMPLE 58] ; what inhibition at 0.1 µM value has been reported?
97.1%

What does the record list as inhibition at 0.1 µM for O=C(O)CC1CC2(CCN(C(=O)/C=C/c3ccccc3C(F)(F)F)CC2)c2c(Br)cccc21 (racemic) [EXAMPLE 2] ?
91.7%

State the recorded inhibition at 0.1 µM for this entry: O=C(O)CC1CC2(CCN(C(=O)Cc3ccc(Cl)cc3C(F)(F)F)CC2)c2c(Cl)cccc21 (stereo not shown)
71.7%

Quick check: inhibition at 0.1 µM of O=C(O)CC1CC2(CCN(C(=O)Cc3ccccc3C(F)(F)F)CC2)c2c(Cl)cccc21 (stereo not shown) ?
76.8%

###

# study target: human 11β-HSD1 (Homo sapiens)
# Construct: expressed in transfected cells; host or cells: CHO cells (microsomes)
# test protocol: Inhibition of microsomal preparation of 11β-HSD1 (SPA, Biological Test Example 1)
# Assay type: biochemical
# assay context: 111 nM
# Experimental: The inhibition of microsomal preparation of 11β-HSD1 by compounds of the invention was measured essentially as previously described (K. Solly, S. S. Mundt, H. J. Zokian, G. J. Ding, A. Hermanowski-Vosatka, B. Strulovici, and W. Zheng, High-Throughput Screening of 11-Beta-Hydroxysteroid Dehydrogenase Type 1 in Scintillation Proximity Assay Format. Assay Drug Dev Technol 3 (2005) 377-384). All reactions were carried out at rt in 96 well clear flexible PET Microbeta plates (PerkinElmer). […]
parameter measured: inhibition at 0.111 µM (%)
Report only the number, with the unit % understood.

Examples with answers:
[[record]]
molecule = "O=C1Cc2ccccc2C2(CCN(C(=O)/C=C/c3ccccc3C(F)(F)F)CC2)N1 [EXAMPLE 42]"
measurement_units = "%"
assay_value = 79.3

[[record]]
molecule = "O=C(O)CC1CC2(CCN(C(=O)NCc3ccccc3N3CCCC3)CC2)c2c(Br)cccc21 (centres unmarked) [EXAMPLE 96]"
measurement_units = "%"
assay_value = 48.9

[[record]]
molecule = "CN1C(=O)C2(CCN(C(=O)CCc3ccccc3C(F)(F)F)CC2)c2ccccc21 [EXAMPLE 69]"
measurement_units = "%"
assay_value = 93.8

[[record]]
molecule = "CC(=O)N1Cc2ccccc2C2(CCN(C(=O)/C=C/c3ccccc3C(F)(F)F)CC2)C1 [EXAMPLE 23]"
measurement_units = "%"
assay_value = 94.9

[[record]]
molecule = "CN(Cc1ccccc1C(F)(F)F)C(=O)N1CCC2(CC1)CC(CC(=O)O)c1cccc(Br)c12 (centres unmarked) [EXAMPLE 102]"
measurement_units = "%"
assay_value = 64.4

[[record]]
molecule = "CN1C(=O)c2ccccc2C12CCN(C(=O)/C=C/c1ccccc1C(F)(F)F)CC2 [EXAMPLE 24]"
measurement_units = "%"
assay_value = 82.3

[[record]]
molecule = "O=C1CC2(CCN(C(=O)/C=C/c3c(Cl)cccc3Cl)CC2)c2c(Br)cccc21 [EXAMPLE 17]"
measurement_units = "%"
assay_value = 81.2

[[record]]
molecule = "Cc1cccc(Cl)c1CNC(=O)N1CCC2(CC1)CC(CC(=O)O)c1cccc(Br)c12 (centres unmarked) [EXAMPLE 91]"
measurement_units = "%"
assay_value = 64.1

[[record]]
molecule = "Cc1ccc2c(c1)C1(CCN(C(=O)/C=C/c3ccccc3C(F)(F)F)CC1)CC2CC(=O)O (racemic) [EXAMPLE 10]"
measurement_units = "%"
assay_value = 87.7

[[record]]
molecule = "O=C(O)CC1CC2(CCN(C(=O)CCc3ccccc3Cl)CC2)c2c(Cl)cccc21 (centres unmarked) [EXAMPLE 74]"
measurement_units = "%"
assay_value = 89.5


For the molecule CCOC(=O)CC1CC2(CCN(C(=O)NCc3ccccc3C(F)(F)F)CC2)c2c(Br)cccc21 (centres unmarked) [EXAMPLE 92] , what inhibition at 0.111 µM is on record?
70.5

Can you share its inhibition at 0.111 µM? I mean this molecule: CN1C(=O)c2cccc(Cl)c2C12CCN(C(=O)/C=C/c1ccccc1C(F)(F)F)CC2 [EXAMPLE 25]
95.3

Which inhibition at 0.111 µM reading was recorded for the molecule CNCCN(C)C(=O)CC1CC2(CCN(C(=O)/C=C/c3ccccc3C(F)(F)F)CC2)c2c(Cl)cccc21 (racemic) [EXAMPLE 7] ?
87.3

I would be grateful if you could share the reported inhibition at 0.111 µM for O=C1NC2(CCN(C(=O)CCc3ccccc3C(F)(F)F)CC2)c2c(Cl)cc(Cl)cc21 [EXAMPLE 72] .
82.4

I'd like to know its inhibition at 0.111 µM. The molecule in question is CCOC(=O)CC1CC2(CCN(C(=O)N(C)Cc3ccccc3C(F)(F)F)CC2)c2c(Br)cccc21 (centres unmarked) [EXAMPLE 101]
42.6

inhibition at 0.111 µM lookup needed for CN(C)C(=O)c1ccc2c(c1)C1(CCN(C(=O)/C=C/c3ccccc3C(F)(F)F)CC1)C(=O)N2C [EXAMPLE 34] , thanks.
38.2

###

# study target: human 11β-HSD1 (Homo sapiens)
# Construct: expressed in transfected cells; host or cells: CHO cells (microsomes)
# test protocol: Inhibition of microsomal preparation of 11β-HSD1 (SPA, Biological Test Example 1)
# Type: biochemical
# assay context: 111 nM
parameter measured: inhibition at 0.111 µM
Remember to follow the number with its unit.

Examples with answers:
[[record]]
molecule = "NC(=O)CC1CC2(CCN(C(=O)/C=C/c3ccccc3C(F)(F)F)CC2)c2c(Br)cccc21 (racemic) [EXAMPLE 13]"
parameter_measured = "inhibition at 0.111 µM"
assay_value = "94.8%"

[[record]]
molecule = "COc1ccc2c(c1)CCNC21CCN(C(=O)CCc2ccccc2C)CC1 [EXAMPLE 63]"
parameter_measured = "inhibition at 0.111 µM"
assay_value = "22.5%"

[[record]]
molecule = "O=C1NC2(CCN(C(=O)Cc3ccccc3C(F)(F)F)CC2)c2c(Br)cccc21 [EXAMPLE 49]"
parameter_measured = "inhibition at 0.111 µM"
assay_value = "49.2%"

[[record]]
molecule = "CC(C)Oc1ccccc1CNC(=O)N1CCC2(CC1)CC(CC(=O)O)c1cccc(Br)c12 (stereo not shown) [EXAMPLE 98]"
parameter_measured = "inhibition at 0.111 µM"
assay_value = "48.2%"

[[record]]
molecule = "CN1C(=O)C2(CCN(C(=O)/C=C/c3ccccc3C(F)(F)F)CC2)c2cc(C(=O)O)ccc21 [EXAMPLE 33]"
parameter_measured = "inhibition at 0.111 µM"
assay_value = "31.5%"

[[record]]
molecule = "CN1C(=O)C2(CCN(C(=O)CCc3ccccc3C(F)(F)F)CC2)c2cc(C(N)=O)ccc21 [EXAMPLE 77]"
parameter_measured = "inhibition at 0.111 µM"
assay_value = "26.3%"

[[record]]
molecule = "O=C1NC2(CCN(C(=O)CCc3ccccc3C(F)(F)F)CC2)c2c(Cl)cccc21 [EXAMPLE 65]"
parameter_measured = "inhibition at 0.111 µM"
assay_value = "87.7%"

[[record]]
molecule = "O=C1CC2(CCN(C(=O)/C=C/c3ccccc3C(F)(F)F)CC2)c2c(Br)cccc21 [EXAMPLE 15]"
parameter_measured = "inhibition at 0.111 µM"
assay_value = "92.6%"

[[record]]
molecule = "CN(Cc1ccccc1F)C(=O)N1CCC2(CC1)CC(CC(=O)O)c1cccc(Br)c12 (stereo not shown) [EXAMPLE 104]"
parameter_measured = "inhibition at 0.111 µM"
assay_value = "88.7%"

[[record]]
molecule = "O=C1CC2(CCN(C(=O)NCc3ccccc3OC(F)(F)F)CC2)c2c(Br)cccc21 [EXAMPLE 99]"
parameter_measured = "inhibition at 0.111 µM"
assay_value = "75.6%"


Next molecule, inhibition at 0.111 µM to be filled in.
What measured inhibition at 0.111 µM is associated with CS(=O)(=O)c1ccccc1CNC(=O)N1CCC2(CC1)CC(CC(=O)O)c1cccc(Br)c12 (stereo not shown) [EXAMPLE 97] on human 11β-HSD1 (Homo sapiens)?
5.6%
